# Measured on: Human PARP-1 enzyme (Homo sapiens, UniProt P09874)
# Construct: purchased Trevigen
# Sequence (P09874 whole entry): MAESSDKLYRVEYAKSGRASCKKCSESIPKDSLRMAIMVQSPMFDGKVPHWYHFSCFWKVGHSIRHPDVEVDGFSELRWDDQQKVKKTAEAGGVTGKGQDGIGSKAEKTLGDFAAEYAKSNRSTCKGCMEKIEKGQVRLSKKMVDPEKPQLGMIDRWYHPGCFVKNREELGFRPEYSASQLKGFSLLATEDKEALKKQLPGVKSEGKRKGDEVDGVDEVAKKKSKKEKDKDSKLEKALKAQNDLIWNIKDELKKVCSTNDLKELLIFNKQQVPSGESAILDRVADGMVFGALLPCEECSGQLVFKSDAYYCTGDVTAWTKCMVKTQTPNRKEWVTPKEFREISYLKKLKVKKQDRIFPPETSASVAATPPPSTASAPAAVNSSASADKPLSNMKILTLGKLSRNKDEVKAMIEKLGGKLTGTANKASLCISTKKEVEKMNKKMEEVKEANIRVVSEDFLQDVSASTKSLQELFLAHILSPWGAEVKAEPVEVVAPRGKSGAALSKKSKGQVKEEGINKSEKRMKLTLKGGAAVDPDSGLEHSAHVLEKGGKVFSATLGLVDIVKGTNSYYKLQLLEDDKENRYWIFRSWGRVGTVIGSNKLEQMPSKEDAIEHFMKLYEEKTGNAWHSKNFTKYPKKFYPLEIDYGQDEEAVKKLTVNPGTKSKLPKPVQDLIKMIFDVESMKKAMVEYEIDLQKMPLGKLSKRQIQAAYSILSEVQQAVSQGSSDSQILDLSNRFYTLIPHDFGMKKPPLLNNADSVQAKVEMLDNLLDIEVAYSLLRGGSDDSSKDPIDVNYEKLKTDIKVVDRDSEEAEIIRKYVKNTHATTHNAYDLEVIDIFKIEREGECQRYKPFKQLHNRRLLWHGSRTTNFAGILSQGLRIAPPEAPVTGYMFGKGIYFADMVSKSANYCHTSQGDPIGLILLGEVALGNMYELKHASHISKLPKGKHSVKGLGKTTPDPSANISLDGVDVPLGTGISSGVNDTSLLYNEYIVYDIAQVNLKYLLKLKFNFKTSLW
# Assay notes: In vitro scintillation proximity assay (SPA) for PARP-1 inhibitory activity
# Format: biochemical
# Condition notes: nicked DNA activated PARP-1, [3H]-NAD+, biotinylated histones; tested between 10^-5 M and 3x10^-9 M; read-out: in vitro SPA assay PARP-1 pIC50 (converted)
Endpoint label: IC50 (nM)

Compound: CCc1cc2ccc(CN3CCN(c4ccc(C#N)cn4)CC3)cc2[nH]c1=O
IC50 (nM): 0.865
//
Compound: CCc1cc2ccc(CN3CCN(c4ccc(C(F)(F)F)cn4)CC3)cc2[nH]c1=O
IC50 (nM): 1.21
//
Compound: CCc1cc2ccc(CN3CCN(c4ccc(Cl)c(Cl)c4)CC3)cc2[nH]c1=O
IC50 (nM): 2.58

I = Cc1cc2ccc(C(C)N3CCN(c4ccccc4Cl)CC3)cc2[nH]c1=O (stereo not drawn)
II = CCc1cc2ccc(CN3CCN(c4ccc(OC)c(OC)c4)CC3)cc2[nH]c1=O
Response body: label of entry with the larger IC50; valid values I , II . Mark your selection by writing its label.
II
(II: 34.2 nM, I: 0.646 nM)

a = CCc1cc2c(OC)cc(CN3CCN(c4ccccc4Cl)CC3)cc2[nH]c1=O
b = COCCNC1CCN(C(C)c2ccc3cc(C)c(=O)[nH]c3c2)CC1 (stereo not drawn)
Dear colleague, could you let me know whether a or b has the lower recorded IC50? Thanks. Mark your selection by writing its label.
a

* * *

# Measured on: Human PARP-1 enzyme (Homo sapiens, UniProt P09874)
# Construct: purchased Trevigen
# Assay notes: In vitro scintillation proximity assay (SPA) for PARP-1 inhibitory activity
# Type: biochemical
# Condition notes: nicked DNA activated PARP-1, [3H]-NAD+, biotinylated histones; tested between 10^-5 M and 3x10^-9 M; read-out: in vitro SPA assay PARP-1 pIC50 (converted)
Endpoint label: IC50 (nM)

Here's what some known entries look like.
Compound: COc1ccccc1N1CCN(Cc2ccc3cc(C)c(=O)[nH]c3c2)CC1
Units text: nM
Quantitative result: 0.251

Compound: CCc1cc2ccc(C(O)CN3CCN(c4ncccn4)CC3)cc2[nH]c1=O (stereo not drawn)
Units text: nM
Quantitative result: 89.5

Compound: CCc1cc2ccc(C(O)CN3CCOCC3)cc2[nH]c1=O (stereo not drawn)
Units text: nM
Quantitative result: 201

Compound: CCc1cc2ccc(C(=O)N3CCc4ccccc4C3)cc2[nH]c1=O
Units text: nM
Quantitative result: 108

Compound: Cc1cc2ccc(C(C)N3CCN(c4ccc(F)cc4F)CC3)cc2[nH]c1=O (stereo not drawn)
Units text: nM
Quantitative result: 1.42

I = CCc1cc2ccc(CN3CCN(c4ccccn4)CC3)cc2[nH]c1=O
II = Cc1cc2ccc(C(C3CCCCC3)N3CCC(c4ccccc4)CC3)cc2[nH]c1=O (stereo not drawn)
III = CCc1cc2c(OC)cc(CN3CCN(c4ccccc4OC)CC3)cc2[nH]c1=O
Arrange the 3 compounds from largest to smallest IC50. Would you mind listing the labels in the order asked for?
II, III, I
(II: 4070 nM, III: 3.02 nM, I: 0.605 nM)

* * *

# Measured on: Human PARP-1 enzyme (Homo sapiens)
# Construct: purchased Trevigen
# Assay notes: In vitro scintillation proximity assay (SPA) for PARP-1 inhibitory activity
# Type: biochemical
# Condition notes: nicked DNA activated PARP-1, [3H]-NAD+, biotinylated histones; tested between 10^-5 M and 3x10^-9 M; read-out: in vitro SPA assay PARP-1 pIC50 (converted)
Endpoint label: IC50 (nM)

Compound: CCc1cc2ccc(CN3CCN(c4ccc(C)c(C)c4)CC3)cc2[nH]c1=O
IC50, nM: 25.6

I = CCc1cc2ccc(CN(C)CCOC)cc2[nH]c1=O
II = Cc1cc2ccc(C(C)N3CCC(c4ccccc4)CC3)cc2[nH]c1=O (stereo not shown)
Dear colleague, could you let me know whether I or II has the lower recorded IC50? Thanks. Mark your selection by writing its label.
II

P = Cc1cc2ccc(C(C3CCCCC3)N3CCN(c4ccccc4C#N)CC3)cc2[nH]c1=O (stereo not shown)
Q = CCc1cc2ccc(CNCC3CCN(c4ncccn4)CC3)cc2[nH]c1=O
R = CCc1cc2ccc(CN3CCN(c4ccncc4)CC3)cc2[nH]c1=O
Arrange the 3 compounds from largest to smallest IC50. Would you mind listing the labels in the order asked for?
P, Q, R
